Hello, the source for this data is patent US20230340111A1, in case you need it.

Recorded EC50 values for a group of binders are listed next.
Target: T1, human FOLR1 expressed on SKOV-3 ovarian carcinoma cells (human, UniProt P15328 25-234)
T1 construct: Naturally expressed receptor on SKOV-3 cells; also called human FOLR1pos SKOV-3 cancer cells; human FOLR1-expressing cell line SKOV-3
T1 sequence (P15328 25-234 limits assumed): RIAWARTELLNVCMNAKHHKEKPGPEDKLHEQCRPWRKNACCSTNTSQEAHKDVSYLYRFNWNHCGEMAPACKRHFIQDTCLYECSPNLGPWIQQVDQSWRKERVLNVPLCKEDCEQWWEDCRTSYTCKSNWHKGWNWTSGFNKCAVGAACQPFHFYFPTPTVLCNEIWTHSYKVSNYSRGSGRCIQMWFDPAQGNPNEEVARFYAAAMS
Test: saturation binding of 131I-labelled His6-tagged VHH on SKOV-3 cells (0-300 nM); non-specific binding by 100-fold unlabelled VHH
I only need the number, in nM, no unit after it.

Guide cases for EC50, answers given:
>  <Binder>
131I-labeled His6-tagged VHH A4 (VHH, [131I]SGMIB conjugated to lysine side-chain amine groups) VHH: DVQLVESGGGLARAGGSLRLSCAASGRAFSSTYAMGWFRQAPGKEREFVADINWSEGSPMYIDSVKDRFTISRDNARNSLYLQMNSLKSEDTAVYYCAARRFGQGYEYWGQGTQVTVSS

>  <Unit Name>
nM

>  <Assay Result>
5.8

$$$$
>  <Binder>
131I-labeled His6-tagged VHH A2 (VHH, [131I]SGMIB conjugated to lysine side-chain amine groups) VHH: DVQLVESGGGLVQAGGSLRLSCAADEMKFSNYDLAWYRRAPGKQRELAAIITSGGSTNYPDSVKGRFTISRDNAKNTVYLEMNSLKPEDTAVYYCNALRPWPQFSDYWGQGTQVTVSS

>  <Unit Name>
nM

>  <Assay Result>
1.1

$$$$
>  <Binder>
131I-labeled His6-tagged VHH A3 (VHH, [131I]SGMIB conjugated to lysine side-chain amine groups) VHH: DVQLVESGGGLVQAGGSLRLSCGVSGNMFSMNLMGWYRQPPGKERDWVAVITKDGSTNYADSVKGRFTISRDNAKNTVSLQMNSLKPEDTAVYYCNVQDGSGWIRAWGWDWGQGTQVTVSS

>  <Unit Name>
nM

>  <Assay Result>
4.5

$$$$

Then this binder:
I would be grateful if you could share the reported EC50 for 131I-labeled His6-tagged VHH A1 (VHH, [131I]SGMIB conjugated to lysine side-chain amine groups) VHH: DVQLVESGGGLVQPGGSLRLSCAASESIFSRNHMSWYRQAPGKQRELAAIITSDGNTNYPDSVKGRFTISRDNAKNTVYLQMNSLKPEDTAVYYCNTFGRSVAGFYDYWGQGTQVTVSS .
0.7
